ASSAYED SYSTEM: human mineralocorticoid receptor (hMR), GAL4-hMR receptor (Homo sapiens)
Construct: expressed in transfected cells; host or cells: HEK293
Sequence (P08235 726-964 limits assumed): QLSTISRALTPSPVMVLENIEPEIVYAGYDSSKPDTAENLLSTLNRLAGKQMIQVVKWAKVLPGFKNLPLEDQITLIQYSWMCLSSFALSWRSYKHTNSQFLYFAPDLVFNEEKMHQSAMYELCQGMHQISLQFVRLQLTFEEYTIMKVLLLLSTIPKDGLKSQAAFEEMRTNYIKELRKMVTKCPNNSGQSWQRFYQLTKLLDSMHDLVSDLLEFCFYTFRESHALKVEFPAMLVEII
PROTOCOL SUMMARY: GAL4-hMR-LBD luciferase reporter assay in HEK293 cells with 1 nM aldosterone (mineralocorticoid receptor antagonistic action)
Type: cell-based
DETAILS: maximum value; DMSO control = 0%, 1 nM aldosterone control = 100%; HEK293 luciferase reporter
Experimental: A plasmid pM-hMR-LBD expressing GAL4-hMR receptor, which has a ligand binding domain (LBD, corresponds to approximately 308 amino acids at the carboxy terminus) of human mineralocorticoid receptor (hMR, NM_000901) bonded to a DNA binding domain of yeast transcription factor GAL4 (corresponding to 147 amino acids at the amino terminus), was prepared. […]
OUTCOME MEASURE: Imax (%)

COMPOUND	OUTCOME MEASURE	MEASURE UNIT	DATA VALUE
Cc1c(C(=O)Nc2ccc(S(C)(=O)=O)cc2)cn([C@H](C)[C@H](C)O)c1-c1ccc(Cl)cc1C(F)(F)F (atropisomer, axis not shown) [Example 3]	Imax	%	95
Cc1c(C(=O)Nc2ccc(S(C)(=O)=O)cc2)cn([C@H](C)[C@H](C)O)c1-c1ccc(F)cc1Cl [Example 4]	Imax	%	106
Cc1c(C(=O)Nc2ccc(S(C)(=O)=O)cc2)cn([C@H](C)[C@H](C)O)c1-c1ccccc1C(F)(F)F (single isomer, unassigned) [Example 1-isomer A]	Imax	%	117
Cc1c(C(=O)Nc2ccc(S(C)(=O)=O)cc2)cn(CCO)c1-c1ccccc1C(F)(F)F (racemic) [Comparative compound, reference compound]	Imax	%	105
Cc1c(C(=O)Nc2ccc(S(C)(=O)=O)cc2)cn([C@H](C)[C@H](C)O)c1-c1ccccc1C(F)(F)F [Example 1]	Imax	%	115
Cc1c(C(=O)Nc2ccc(S(C)(=O)=O)cc2)cn([C@H](C)[C@H](C)O)c1-c1ccc(F)cc1C(F)(F)F (single isomer, unassigned) [Example 2-isomer A]	Imax	%	103
